Origin of measurements: ChEMBL document CHEMBL4007512

Parameter 'readout' = pIC50; parameter 'system' = Voltage-gated inwardly rectifying potassium channel KCNH2 (Homo sapiens).
Sequence (Q12809 whole entry): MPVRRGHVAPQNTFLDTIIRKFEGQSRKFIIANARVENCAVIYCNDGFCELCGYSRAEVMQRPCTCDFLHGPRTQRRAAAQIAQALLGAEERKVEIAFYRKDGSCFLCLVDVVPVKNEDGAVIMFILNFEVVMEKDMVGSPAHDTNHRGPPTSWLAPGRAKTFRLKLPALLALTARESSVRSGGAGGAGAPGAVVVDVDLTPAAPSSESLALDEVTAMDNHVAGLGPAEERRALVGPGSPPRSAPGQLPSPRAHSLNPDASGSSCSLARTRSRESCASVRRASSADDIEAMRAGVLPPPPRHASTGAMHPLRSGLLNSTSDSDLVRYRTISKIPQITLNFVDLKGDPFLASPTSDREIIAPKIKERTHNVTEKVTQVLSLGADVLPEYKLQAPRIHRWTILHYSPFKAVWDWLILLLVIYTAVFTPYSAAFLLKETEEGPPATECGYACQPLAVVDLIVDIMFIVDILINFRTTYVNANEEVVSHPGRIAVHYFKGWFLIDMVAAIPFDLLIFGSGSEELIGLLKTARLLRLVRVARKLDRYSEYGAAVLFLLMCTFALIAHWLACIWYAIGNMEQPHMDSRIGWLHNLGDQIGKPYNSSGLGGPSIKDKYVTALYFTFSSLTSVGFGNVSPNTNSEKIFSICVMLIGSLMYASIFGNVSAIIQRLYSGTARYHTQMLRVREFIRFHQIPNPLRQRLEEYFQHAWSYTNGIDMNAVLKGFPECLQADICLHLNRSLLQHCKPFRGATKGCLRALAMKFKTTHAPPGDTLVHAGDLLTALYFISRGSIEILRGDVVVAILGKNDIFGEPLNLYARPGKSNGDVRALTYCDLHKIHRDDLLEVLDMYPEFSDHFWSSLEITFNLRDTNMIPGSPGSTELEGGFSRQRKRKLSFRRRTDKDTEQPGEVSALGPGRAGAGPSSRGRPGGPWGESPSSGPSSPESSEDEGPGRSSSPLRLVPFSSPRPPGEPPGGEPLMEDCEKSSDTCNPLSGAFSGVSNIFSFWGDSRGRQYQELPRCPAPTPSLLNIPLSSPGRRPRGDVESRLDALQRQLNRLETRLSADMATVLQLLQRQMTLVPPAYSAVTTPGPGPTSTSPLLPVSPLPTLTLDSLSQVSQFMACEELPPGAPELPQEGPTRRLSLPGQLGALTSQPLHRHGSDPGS
pIC50 is defined as minus the log10 of a concentration measured in mol/L.

Below, each entry is followed by its recorded pIC50 result.
O=c1n(Cc2ccc(Cl)cc2)c2sc3c(c2c2ncnn12)CCCC3	5.20
CCOC(=O)C1=C[C@]2(CC)CCCN3CCc4c(n1c1ccccc41)[C@@H]32	7.41

Query string: # get_value(readout= pIC50, system= Voltage-gated inwardly rectifying potassium channel KCNH2 (Homo sapiens)) for CN1CCc2c(sc3c2c2ncnn2c(=O)n3Cc2ccc(Cl)cc2)C1
Result string: 7.16

* * *

# Method summary: Intrinsic clearance in human liver microsomes at 1 uM in presence of NADPH by HPLC method
# Type: ADME, microsome
# Condition info: read-out: CLH
Reported endpoint: microsomal CLint at 1 µM
The reply must contain the numeric value and, after it, the unit.

Answered cases to consult:
O=c1n(Cc2ccc(Cl)cc2)c2sc3c(c2c2ncnn12)CCN(C1COC1)C3	6.1 µL/min/mg
O=c1n(Cc2ccccc2)c2sc3c(c2c2ncnn12)CCN(CC1CCOCC1)C3	14 µL/min/mg
COc1ccc(Cn2c(=O)n3ncnc3c3c4c(sc32)CN(C(=O)C2CC2(F)F)CC4)cc1 (racemic)	7.2 µL/min/mg
COc1ccc(Cn2c(=O)n3ncnc3c3c4c(sc32)CN(CC2CCOCC2)CC4)c(F)c1	11 µL/min/mg
O=c1n(Cc2ccc(Cl)cc2)c2sc3c(c2c2ncnn12)CCN(Cc1ccccc1)C3	21 µL/min/mg
O=C(C1CC1)N1CCc2c(sc3c2c2ncnn2c(=O)n3Cc2ccc(Cl)cc2)C1	6 µL/min/mg

Now look at this one.
Query string: Report microsomal CLint at 1 µM for COc1ccc(Cn2c(=O)n3ncnc3c3c4c(sc32)CN(CC2CCOCC2)CC4(F)F)cc1 please.
Result string: 6.7 µL/min/mg

* * *

# System tested: Dual 3',5'-cyclic-AMP and -GMP phosphodiesterase 11A (Homo sapiens, UniProt Q9HCR9)
# Sequence (Q9HCR9 whole entry): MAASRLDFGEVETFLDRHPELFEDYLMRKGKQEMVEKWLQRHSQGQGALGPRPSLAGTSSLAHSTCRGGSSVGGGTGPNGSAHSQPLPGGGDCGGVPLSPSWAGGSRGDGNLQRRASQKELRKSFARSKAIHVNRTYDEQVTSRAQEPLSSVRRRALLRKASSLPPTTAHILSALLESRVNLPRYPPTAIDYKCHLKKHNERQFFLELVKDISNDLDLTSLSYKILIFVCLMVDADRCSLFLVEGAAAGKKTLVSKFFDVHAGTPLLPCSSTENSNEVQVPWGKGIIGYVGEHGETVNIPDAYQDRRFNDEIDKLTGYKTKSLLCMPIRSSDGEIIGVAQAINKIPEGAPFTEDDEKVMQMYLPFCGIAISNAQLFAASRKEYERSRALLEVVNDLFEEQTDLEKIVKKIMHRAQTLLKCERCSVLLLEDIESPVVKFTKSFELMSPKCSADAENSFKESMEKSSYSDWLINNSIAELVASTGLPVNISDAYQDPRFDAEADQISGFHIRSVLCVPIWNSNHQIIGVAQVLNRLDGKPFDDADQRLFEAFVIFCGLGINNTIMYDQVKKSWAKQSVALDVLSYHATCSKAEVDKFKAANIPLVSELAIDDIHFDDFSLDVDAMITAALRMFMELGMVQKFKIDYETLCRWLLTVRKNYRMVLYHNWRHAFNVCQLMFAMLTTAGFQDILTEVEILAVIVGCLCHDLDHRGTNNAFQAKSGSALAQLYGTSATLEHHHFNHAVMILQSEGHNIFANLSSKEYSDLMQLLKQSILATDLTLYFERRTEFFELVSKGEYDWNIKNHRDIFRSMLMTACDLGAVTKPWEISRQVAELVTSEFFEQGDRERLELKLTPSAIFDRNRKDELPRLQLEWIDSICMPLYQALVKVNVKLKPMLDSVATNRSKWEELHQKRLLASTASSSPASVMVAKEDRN
# Method summary: Inhibition of N-terminal GST-tagged full length recombinant human PDE11A4 expressed in Baculovirus infected Sf9 insect cells assessed as decrease in FAM-cAMP hydrolysis after 1 hr by fluorescence polarization assay
Reported endpoint: IC50
Express your answer as a number followed by its unit.

Query string: // query IC50 value for entry O=c1n(Cc2ccc(Cl)cc2)c2sc3c(c2c2ncnn12)CCCC3
Result string: 2.3 µM

* * *

# Method summary: Cmax in Sprague-Dawley rat brain at 0.3 mg/kg, po after 24 hrs
# Assay type: ADME, organism-based
# Parameters: dose 0.3 mg/kg, route oral
Reported endpoint: Cmax (nM)
Reply with just the number (in nM).

Query string: If you can, please state the reported Cmax value of COc1ccc(Cn2c(=O)n3ncnc3c3c4c(sc32)CN(CC2CCOCC2)CC4)c(F)c1 .
Result string: 110

* * *

# System tested: cGMP-specific 3',5'-cyclic phosphodiesterase (Homo sapiens)
Reported endpoint: IC50 (µM)
Reply numerically in µM, unit not repeated.

Query string: I am curious: what IC50 value has been reported for CN1C(=O)c2[nH]c(Cc3ccc(C(F)(F)F)cc3)nc2N2C1=N[C@@H]1CCC[C@@H]12 ?
Result string: 0.06

* * *

# Method summary: Intrinsic clearance in human liver microsomes at 1 uM in presence of NADPH by HPLC method
# Type: ADME, microsome
# Condition info: read-out: CLH
# maps each entry to its microsomal CLint at 1 µM

Before answering, review these 4 worked examples.
O=c1n(Cc2ccc(Cl)cc2)c2sc3c(c2c2ncnn12)CCN(CC1CC1)C3	118 µL/min/mg
O=c1n(Cc2ccc(Cl)cc2F)c2sc3c(c2c2ncnn12)CCN(CC1CCOCC1)C3	10 µL/min/mg
O=c1n(Cc2ccc(Cl)cc2)c2sc3c(c2c2ncnn12)CCN(CC1CCOCC1)C3	9 µL/min/mg
CN1CCc2c(sc3c2c2ncnn2c(=O)n3Cc2ccc(Cl)cc2)C1	> 300 µL/min/mg

# input for lookup
Query string: What microsomal CLint at 1 µM value was documented for this compound, COc1ccc(Cn2c(=O)n3ncnc3c3c4c(sc32)CN(CC2CCOCC2)CC4)cc1 ?
Result string: 10 µL/min/mg

* * *

# System tested: High affinity cGMP-specific 3',5'-cyclic phosphodiesterase 9A (Homo sapiens, UniProt O76083)
# Sequence (O76083 whole entry): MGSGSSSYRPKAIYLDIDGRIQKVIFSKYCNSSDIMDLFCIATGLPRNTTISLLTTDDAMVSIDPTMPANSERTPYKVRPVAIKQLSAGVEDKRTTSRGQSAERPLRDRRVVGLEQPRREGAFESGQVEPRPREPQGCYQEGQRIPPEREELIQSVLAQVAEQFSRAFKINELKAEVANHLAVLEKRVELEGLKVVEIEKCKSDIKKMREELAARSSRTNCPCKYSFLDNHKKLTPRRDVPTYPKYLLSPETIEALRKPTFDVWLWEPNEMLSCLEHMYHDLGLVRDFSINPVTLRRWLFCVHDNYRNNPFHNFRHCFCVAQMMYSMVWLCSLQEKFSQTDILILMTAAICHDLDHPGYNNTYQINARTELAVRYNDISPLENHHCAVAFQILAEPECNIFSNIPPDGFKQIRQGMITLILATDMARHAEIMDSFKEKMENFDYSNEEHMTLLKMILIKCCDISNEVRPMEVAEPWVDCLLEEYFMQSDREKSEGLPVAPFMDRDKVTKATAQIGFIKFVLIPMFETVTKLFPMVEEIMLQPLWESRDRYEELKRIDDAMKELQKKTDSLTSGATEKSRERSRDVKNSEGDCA
Reported endpoint: IC50

Query string: Can you look up the measured IC50 of O=c1n(Cc2ccc(Cl)cc2)c2sc3c(c2c2ncnn12)CCCC3 for me?
Result string: > 10 µM

* * *

# Method summary: Elimination half life in single dosed Sprague-Dawley rat at 5 mg/kg, po or 1 mg/kg, iv by LC-MS/MS analysis
# Format: ADME, organism-based
# Condition info: in vivo, read-out: beta t1/2 (converted)
Reported endpoint: half-life (h)
Express it in h; write the number only.

Query string: So what's the measured half-life for this one? COc1ccc(Cn2c(=O)n3ncnc3c3c4c(sc32)CN(CC2CCOCC2)CC4)c(F)c1
Result string: 2.3

* * *

# System tested: High affinity 3',5'-cyclic-AMP phosphodiesterase 7A (Homo sapiens)
# Sequence (Q13946 whole entry): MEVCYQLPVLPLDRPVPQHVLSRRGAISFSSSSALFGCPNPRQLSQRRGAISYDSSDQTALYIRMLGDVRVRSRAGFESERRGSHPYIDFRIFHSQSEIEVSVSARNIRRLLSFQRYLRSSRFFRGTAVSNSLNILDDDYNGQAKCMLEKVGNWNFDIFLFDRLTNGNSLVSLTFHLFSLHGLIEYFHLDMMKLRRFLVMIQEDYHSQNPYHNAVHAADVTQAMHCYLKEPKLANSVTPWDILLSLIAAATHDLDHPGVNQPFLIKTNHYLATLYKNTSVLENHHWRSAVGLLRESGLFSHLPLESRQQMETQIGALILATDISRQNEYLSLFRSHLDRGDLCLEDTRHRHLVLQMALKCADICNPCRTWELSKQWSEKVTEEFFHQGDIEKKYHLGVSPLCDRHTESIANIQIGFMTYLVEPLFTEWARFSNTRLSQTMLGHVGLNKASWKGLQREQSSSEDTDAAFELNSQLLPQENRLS
pIC50: −log10 of the molar value.
Reported endpoint: pIC50

Query string: What value of pIC50 has been recorded for this entry: O=c1n(Cc2ccc(Cl)cc2)c2sc3c(c2c2ncnn12)CCCC3
Result string: < 5.00

* * *

# System tested: Cone cGMP-specific 3',5'-cyclic phosphodiesterase subunit alpha' (Homo sapiens, UniProt P51160)
# Sequence (P51160 whole entry): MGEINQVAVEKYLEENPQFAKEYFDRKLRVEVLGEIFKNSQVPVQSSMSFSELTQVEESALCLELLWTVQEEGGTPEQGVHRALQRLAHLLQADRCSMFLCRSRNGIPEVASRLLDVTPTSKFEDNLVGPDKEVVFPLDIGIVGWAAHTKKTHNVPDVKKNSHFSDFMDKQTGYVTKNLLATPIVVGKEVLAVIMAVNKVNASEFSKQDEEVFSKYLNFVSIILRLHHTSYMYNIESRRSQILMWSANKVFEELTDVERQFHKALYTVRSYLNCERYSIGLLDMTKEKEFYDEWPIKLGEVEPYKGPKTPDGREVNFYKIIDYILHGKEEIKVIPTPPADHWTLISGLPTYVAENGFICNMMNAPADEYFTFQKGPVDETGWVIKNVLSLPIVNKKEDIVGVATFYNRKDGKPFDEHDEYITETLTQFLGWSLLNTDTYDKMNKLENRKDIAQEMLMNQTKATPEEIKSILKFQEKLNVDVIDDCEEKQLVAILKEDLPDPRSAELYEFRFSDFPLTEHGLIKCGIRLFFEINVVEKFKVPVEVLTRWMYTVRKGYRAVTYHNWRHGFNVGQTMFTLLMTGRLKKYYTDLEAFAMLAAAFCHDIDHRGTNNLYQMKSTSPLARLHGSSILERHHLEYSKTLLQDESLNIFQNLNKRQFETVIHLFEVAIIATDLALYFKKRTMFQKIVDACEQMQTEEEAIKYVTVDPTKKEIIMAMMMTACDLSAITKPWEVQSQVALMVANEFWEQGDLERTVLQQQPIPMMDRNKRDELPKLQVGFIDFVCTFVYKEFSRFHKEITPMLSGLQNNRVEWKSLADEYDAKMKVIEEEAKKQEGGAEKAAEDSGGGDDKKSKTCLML
# Method summary: Inhibition of N-terminal GST-tagged full length recombinant human PDE6C expressed in Baculovirus infected Sf9 insect cells
Reported endpoint: IC50 (nM)
Express it in nM; write the number only.

Query string: Entry O=c1n(Cc2ccc(Cl)cc2)c2sc3c(c2c2ncnn12)CCCC3 has what IC50?
Result string: 460

* * *

# System tested: cGMP-specific 3',5'-cyclic phosphodiesterase (Homo sapiens, UniProt O76074)
# Method summary: Inhibition of N-terminal GST-tagged full length recombinant human PDE5A1 expressed in Baculovirus infected Sf9 insect cells assessed as decrease in FAM-cGMP hydrolysis after 1 hr by fluorescence polarization assay
Reported endpoint: IC50 (nM)
Just the number please, in nM, no unit attached.

Query string: Entry O=c1n(Cc2ccc(Cl)cc2)c2sc3c(c2c2ncnn12)CCCC3 has what IC50?
Result string: 370

* * *

# Method summary: Fraction unbound in Sprague-Dawley rat brain at 5 mg/kg, po or 1 mg/kg, iv by LC-MS/MS analysis
# Assay type: ADME, organism-based
Reported endpoint: fraction unbound
Hey, just send me the number, nothing else.

Query string: Which value of fraction unbound has been reported for COc1ccc(Cn2c(=O)n3ncnc3c3c4c(sc32)CN(CC2CCOCC2)CC4)c(F)c1 in the records?
Result string: 0.016
